# targetEntity: HLA-A*32:15
# protocolSummary: IEDB peptide-MHC binding, purified MHC/competitive/fluorescence; filed as Kd, often an IC50 or EC50 that approximates it; bounds were set here for any values at or beyond the usual limits of such assays
# testContext: source organism: Rickettsia felis URRWXCal2
reportedProperty: pKd
In simple prose, pKd is minus the logarithm base ten of a concentration in moles per litre.

// recorded pKd for FMYALSRAF : 7.56

* * *

# targetEntity: HLA-B*08:01
# protocolSummary: IEDB peptide-MHC binding, purified MHC/direct/fluorescence; filed as Kd, often an IC50 or EC50 that approximates it; bounds were set here for any values at or beyond the usual limits of such assays
# testContext: source organism: Campylobacter jejuni RM1221
pKd: −log10 of the molar value.
reportedProperty: pKd

// recorded pKd for KSNEKNMDF : ≤ 4.70

* * *

# targetEntity: HLA-B*44:03
# protocolSummary: IEDB peptide-MHC binding, purified MHC/competitive/radioactivity; filed as Kd, often an IC50 or EC50 that approximates it; bounds were set here for any values at or beyond the usual limits of such assays
# testContext: source organism: Dengue virus 4 Philippines/H241/1956
reportedProperty: Kd

// recorded Kd for HETGRLEPSW : 188 nM

// recorded Kd for NEMGLIEKT : 2000 nM

// recorded Kd for QENPYRTWAY : 8.86 nM

// recorded Kd for HERGRPLLF : 1000 nM

* * *

# targetEntity: HLA-A*23:01
# protocolSummary: IEDB peptide-MHC binding, purified MHC/competitive/fluorescence; filed as Kd, often an IC50 or EC50 that approximates it; bounds were set here for any values at or beyond the usual limits of such assays
# testContext: source organism: Entamoeba histolytica HM-1:IMSS
Kindly supply the reported Kd values for the records listed here.
A complete answer gives the number and then names the unit.

// recorded Kd for WYMRALYQK : 388 nM

// recorded Kd for EVRKAIEFV : 1300 nM

* * *

# targetEntity: HLA-A*02:19
# protocolSummary: IEDB peptide-MHC binding, purified MHC/competitive/fluorescence; filed as Kd, often an IC50 or EC50 that approximates it; bounds were set here for any values at or beyond the usual limits of such assays
# testContext: source organism: Human immunodeficiency virus 1
reportedProperty: pKd
In simple prose, pKd is minus the logarithm base ten of a concentration in moles per litre.

// recorded pKd for GLADQLIHL : 7.76

// recorded pKd for GLGQHIYET : 6.11

* * *

# targetEntity: HLA-B*08:01
# protocolSummary: IEDB peptide-MHC binding, purified MHC/competitive/fluorescence; bounds were set here for any values at or beyond the usual limits of such assays
# testContext: source organism: Vaccinia virus Copenhagen
reportedProperty: IC50

// recorded IC50 for ITFALKKLI : ≥ 210 µM

* * *

# targetEntity: HLA-A*11:01
# protocolSummary: IEDB peptide-MHC binding, purified MHC/direct/fluorescence; filed as Kd, often an IC50 or EC50 that approximates it; bounds were set here for any values at or beyond the usual limits of such assays
# testContext: source organism: Vibrio vulnificus
reportedProperty: pKd
In simple prose, pKd is minus the logarithm base ten of a concentration in moles per litre.

// recorded pKd for KVMALPIPH : 7.61

* * *

# targetEntity: HLA-B*14:02
# protocolSummary: IEDB peptide-MHC binding, purified MHC/competitive/fluorescence; filed as Kd, often an IC50 or EC50 that approximates it; bounds were set here for any values at or beyond the usual limits of such assays
# testContext: source organism: Vibrio cholerae
reportedProperty: Kd (nM)
Note: unit nM is implicit; provide only the numeric part.

// recorded Kd for TRAPAPFPL : 565
